System: 695427-040-R-J1-PDC complex spheroid viability
Assay: Anticancer human tumor 695427-040-R-J1-PDC patient-derived colon adenocarcinoma cell line growth inhibition [RAS]
Conditions: compound 0.00316 µM; hits give low values
From the text: RAS pathway inhibitors in Combinations in Complex Spheroids A high-throughput screen of multi-cell type tumor spheroids was designed to identify active combinations of RAS pathway inhibitors and targeted small molecules. Complex spheroids include a stromal component modeled by human endothelial cells (HUVEC) and fibroblasts modeled by human mesenchymal stem cells (MSCs). […] Compounds. […] If the clinical Cmax for an agent had not been determined, the highest concentration tested was 10 microM. […]
readout type: viability, T/C

                                   molecule            recorded_result
0  O=C(c1ccc(F)c(F)c1Nc1ccc(I)cc1F)N1CC(O)([C@@H]2CCCCN2)C1   96.2% [middle of 4 runs]
1  C=CC(=O)Nc1cc(Nc2nccc(-c3cn(C)c4ccccc34)n2)c(OC)cc1N(C)CCN(C)C   96.4% [middle of 4 runs]
2  CC(C)n1nc(-c2ccc3oc(N)nc3c2)c2c(N)ncnc21   91.7% [middle of 4 runs]
3  Nc1ccn(C2OC(CO)C(O)C2(F)F)c(=O)n1 (stereo unspecified)   92.8% [middle of 4 runs]
4  CCN1CCN(Cc2ccc(Nc3ncc(F)c(-c4cc(F)c5nc(C)n(C(C)C)c5c4)n3)nc2)CC1    102% [middle of 4 runs]
5  C=CC(=O)N1CCN(c2nc(OCC3CCCN3C)nc3c(F)c(-c4nc(N)cc(C)c4C(F)(F)F)c(Cl)cc23)C(C)C1 (stereo unspecified)  97.3% [middle of 12 runs]

###

test system: 695427-040-R-J1-PDC complex spheroid viability; assay: Anticancer human tumor 695427-040-R-J1-PDC cell line growth inhibition [RAS]; details: second compound 1 µM; first compound 0.0316 µM; hits give low values;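 also: viability read after seven days of drug exposure; 100% = DMSO vehicle control viability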
Each item that follows carries a reported viability, T/C.

compound	result units	viability, T/C
C[C@@H](NC(=O)c1ncnc(N)c1Cl)c1ncc(C(=O)Nc2cc(C(F)(F)F)c(Cl)cn2)s1 + C=CC(=O)N1CCN(c2nc(OCC3CCCN3C)nc3c(F)c(-c4nc(N)cc(C)c4C(F)(F)F)c(Cl)cc23)C(C)C1	%	108
C[C@@H](NC(=O)c1ncnc(N)c1Cl)c1ncc(C(=O)Nc2cc(C(F)(F)F)c(Cl)cn2)s1 + C#Cc1c(F)ccc2cc(O)cc(-c3ncc4c(N5CC6CCC(C5)N6)nc(OCC56CCCN5CC(F)C6)nc4c3F)c12	%	87.9
NC1c2ccccc2OC12CCN(c1cnc3c(N4CCCc5ncccc54)n[nH]c3n1)CC2 (stereo not given) + C=CC(=O)N1CCN(c2nc(OCC3CCCN3C)nc3c(F)c(-c4nc(N)cc(C)c4C(F)(F)F)c(Cl)cc23)C(C)C1	%	70.6
Cc1nc(N2CCC3(CC2)COC(C)C3N)c(CO)nc1Sc1ccnc(N)c1Cl (stereo not given) + C=CC(=O)N1CCN(c2nc(OCC3CCCN3C)nc3c(F)c(-c4nc(N)cc(C)c4C(F)(F)F)c(Cl)cc23)C(C)C1	%	86.8
CC(C)NCC(C(=O)N1CCN(c2ncnc3c2C(C)CC3O)CC1)c1ccc(Cl)cc1 (stereo not given) + C#Cc1c(F)ccc2cc(O)cc(-c3ncc4c(N5CC6CCC(C5)N6)nc(OCC56CCCN5CC(F)C6)nc4c3F)c12	%	66.2
C=CC(=O)Nc1cc(Nc2nccc(-c3cn(C)c4ccccc34)n2)c(OC)cc1N(C)CCN(C)C + C=CC(=O)N1CCN(c2nc(OCC3CCCN3C)nc3c(F)c(-c4nc(N)cc(C)c4C(F)(F)F)c(Cl)cc23)C(C)C1	%	88.5
CC(C)n1nc(-c2ccc3oc(N)nc3c2)c2c(N)ncnc21 + C=CC(=O)N1CCN(c2nc(OCC3CCCN3C)nc3c(F)c(-c4nc(N)cc(C)c4C(F)(F)F)c(Cl)cc23)C(C)C1	%	72.6
CCN1CCN(Cc2ccc(Nc3ncc(F)c(-c4cc(F)c5nc(C)n(C(C)C)c5c4)n3)nc2)CC1 + C#Cc1c(F)ccc2cc(O)cc(-c3ncc4c(N5CC6CCC(C5)N6)nc(OCC56CCCN5CC(F)C6)nc4c3F)c12	%	61
O=C(c1ccc(F)c(F)c1Nc1ccc(I)cc1F)N1CC(O)([C@@H]2CCCCN2)C1 + C=CC(=O)N1CCN(c2nc(OCC3CCCN3C)nc3c(F)c(-c4nc(N)cc(C)c4C(F)(F)F)c(Cl)cc23)C(C)C1	%	60.2
C=CC(=O)N1CCN(c2nc(OCC3CCCN3C)nc3c(F)c(-c4nc(N)cc(C)c4C(F)(F)F)c(Cl)cc23)C(C)C1 (stereo not given) + C#Cc1c(F)ccc2cc(O)cc(-c3ncc4c(N5CC6CCC(C5)N6)nc(OCC56CCCN5CC(F)C6)nc4c3F)c12	%	67.2
